tested on: HEK-293T; assay: Multiplex assay against HEK293T; type: toxicity, cell-based; details: human, 12 h, 10 µM, compound concentration 10 uM, replicate 2
Mark TRUE for Population Mitochondria Different-Phenotype (%) under 50%, FALSE if at or over.

Data request: Does `COc1cc2nccc(Oc3ccc(NC(=O)Nc4cc(C)on4)c(Cl)c3)c2cc1OC.O` have Population Mitochondria Different-Phenotype (%) strictly under 50%?
Data returned: FALSE

Data request: Please let me know if Cc1nc(-c2cn3c(n2)-c2ccc(-c4cnn(C(C)(C)C(N)=O)c4)cc2OCC3)n(C(C)C)n1 [TASELISIB] shows Population Mitochondria Different-Phenotype (%) below 50%.
Data returned: TRUE

Data request: Find out if reported Population Mitochondria Different-Phenotype (%) for `C=CC(=O)Nc1cccc(C(=O)Nc2ccc(Nc3cc(-c4[nH]c(SC)nc4C)ccn3)cc2)c1` is less than 50%
Data returned: TRUE

Data request: Would you kindly verify if Population Mitochondria Different-Phenotype (%) of CN1CCN(c2ccc(OC(F)(F)F)c(Nc3ncc4c(n3)-c3c(c(C(N)=O)nn3CCO)CC4)c2)CC1 [ONVANSERTIB] is strictly less than 50%?
Data returned: FALSE

Data request: For this compound, is Population Mitochondria Different-Phenotype (%) lower than 50%? Cc1nc(Nc2n[nH]c3c2CN(C(=O)N[C@H](CN(C)C)c2ccccc2)C3(C)C)c2sccc2n1 [PF-03758309]
Data returned: TRUE

More entries:
Data request: Please let me know if `OC1(c2ccc(Cl)cc2)CCN(Cc2c[nH]c3ccccc23)CC1` shows Population Mitochondria Different-Phenotype (%) below 50%.
Data returned: FALSE

Data request: is_below(Population Mitochondria Different-Phenotype (%), 50%) for `C=CC(=O)Nc1ccc2ncnc(Nc3ccc(OCc4cccc(F)c4)c(Cl)c3)c2c1.Cc1ccc(S(=O)(=O)O)cc1` ?
Data returned: TRUE

Data request: Determine whether this compound shows Population Mitochondria Different-Phenotype (%) lower than 50% (ties excluded): C=CC(=O)Nc1cc2c(Nc3ccc(F)c(Cl)c3)ncnc2cc1OCCCN1CCOCC1.Cl.Cl [CANERTINIB DIHYDROCHLORIDE]
Data returned: TRUE

Data request: Population Mitochondria Different-Phenotype (%) under 50%? Item: `CC(C)(O)CNc1ncc(-c2ccnc(Nc3ccnc(Cl)c3)n2)c(CC2CC2)n1`
Data returned: FALSE

Data request: Does the reported Population Mitochondria Different-Phenotype (%) of the following compound sit strictly below 50%? CN(C)CC#Cc1ccc(OCCCc2sc(N3CCc4cccc(C(=O)Nc5nc6ccccc6s5)c4C3)nc2C(=O)O)c(F)c1 [A-1155463]
Data returned: TRUE

* * *

Listed molecules paired with reported Population Tubulin-Different-Phenotype (%)
system: Fibroblast; assay: Multiplex assay against human fibroblast; format: toxicity, cell-based; details: 48 h, 1 µM, compound concentration 1 uM, replicate 2
Numeric only. Scale: %

Data request: Name the reported Population Tubulin-Different-Phenotype (%) value associated with the molecule `CC(C)(O)CNc1ncc(-c2ccnc(Nc3ccnc(Cl)c3)n2)c(CC2CC2)n1`
Data returned: 40

Data request: Return reported Population Tubulin-Different-Phenotype (%); argument: `C=CC(=O)Nc1ccc2ncnc(Nc3ccc(OCc4cccc(F)c4)c(Cl)c3)c2c1.Cc1ccc(S(=O)(=O)O)cc1`
Data returned: 41

As a next step, examine the molecule that follows.
Data request: Value lookup for Population Tubulin-Different-Phenotype (%); key = COc1cccc([C@@H](C)NCCCc2ccccc2Cl)c1.Cl [TECALCET HYDROCHLORIDE]
Data returned: 40

* * *

tested on: Fibroblast; assay: Multiplex assay against human fibroblast; format: toxicity, cell-based; conditions: 24 h, 1 µM, compound concentration 1 uM, replicate 1
compounds and their reported Total Cell Count
Form field (numeric): enter value without unit.

Data request: Consider the compound shown here: CN1CCN(c2ccc(OC(F)(F)F)c(Nc3ncc4c(n3)-c3c(c(C(N)=O)nn3CCO)CC4)c2)CC1 [ONVANSERTIB] What is its recorded Total Cell Count?
Data returned: 165

Data request: What value of Total Cell Count has been reported for the following compound? CN1CCC[C@@H]1CCO[C@](C)(c1ccccc1)c1ccc(Cl)cc1.O=C(O)/C=C/C(=O)O [CLEMASTINE FUMARATE]
Data returned: 118

Data request: Name the recorded Total Cell Count for c1cn2cc(-c3ccc4cn[nH]c4c3)nc(Nc3ccc(N4CCOCC4)cc3)c2n1 [ENTOSPLETINIB] .
Data returned: 102

Data request: Please give the measured Total Cell Count for this compound: `CN(C)C(=O)/C(C#N)=C/c1ccc(-c2nc3cnc4[nH]ccc4c3n2C2CCCCC2)o1`
Data returned: 141

Data request: // query Total Cell Count value for entry Cc1c(-c2ccc(O)cc2)n(Cc2ccc(OCCN3CCCCCC3)cc2)c2ccc(O)cc12 [BAZEDOXIFENE]
Data returned: 106

Data request: What does the data say about its Total Cell Count? Entry: CN1CCCC(n2nc(Cc3ccc(Cl)cc3)c3ccccc3c2=O)CC1.Cl (stereo not drawn) [AZELASTINE HYDROCHLORIDE]
Data returned: 95

# next compound below
Data request: What value of measured Total Cell Count is listed for Cc1nc(-c2ccc(-c3ccc(C(=O)N4CCc5cc6c(cc54)C4(CCN(C)CC4)CO6)cc3)c(C)c2)no1 [SB-224289] ?
Data returned: 202

* * *

Reported values of Population Membrane Permeable-Phenotype (%) for individual entries
system: HEK-293T; assay: Multiplex assay against HEK293T; assay type: toxicity, cell-based; details: human, 12 h, 1 µM, compound concentration 1 uM, replicate 2
Report as a plain number; the unit % is understood.

Previously resolved entries follow.
Data request: For HEK-293T, provide Population Membrane Permeable-Phenotype (%) of `Cc1c(-c2ccc(O)cc2)n(Cc2ccc(OCCN3CCCCCC3)cc2)c2ccc(O)cc12` please.
Data returned: 11

Data request: Recorded Population Membrane Permeable-Phenotype (%) for `Cc1[nH]c(/C=C2\C(=O)Nc3ccc(S(=O)(=O)N(C)c4cccc(Cl)c4)cc32)c(C)c1C(=O)N1CCN(C)CC1` with HEK-293T, please?
Data returned: 18

Now examine the next entry.
Data request: Short answer please: Population Membrane Permeable-Phenotype (%), HEK-293T, entry CN(C)C(=O)N[C@H]1CC[C@H](CCN2CCN(c3cccc(Cl)c3Cl)CC2)CC1.Cl [CARIPRAZINE HYDROCHLORIDE]
Data returned: 2

* * *

tested on: Fibroblast; experiment: Multiplex assay against human fibroblast; format: toxicity, cell-based; conditions: 24 h, 1 µM, compound concentration 1 uM, replicate 2
readout_name: Population Membrane Permeable-Phenotype (%)
Write the answer as a number in %, unit excluded.

Data request: Bench note: what Population Membrane Permeable-Phenotype (%) did `Cc1c(-c2ccc(O)cc2)n(Cc2ccc(OCCN3CCCCCC3)cc2)c2ccc(O)cc12` show?
Data returned: 2

Data request: Please look up its Population Membrane Permeable-Phenotype (%): Cl.N#Cc1ccc2[nH]cc(CCCCN3CCN(c4ccc5oc(C(N)=O)cc5c4)CC3)c2c1 [VILAZODONE HYDROCHLORIDE]
Data returned: 3

Data request: Reported Population Membrane Permeable-Phenotype (%), compound `c1cn2cc(-c3ccc4cn[nH]c4c3)nc(Nc3ccc(N4CCOCC4)cc3)c2n1` : ____
Data returned: 17

Data request: Record request: Population Membrane Permeable-Phenotype (%) value, item `C=CC(=O)Nc1ccc2ncnc(Nc3ccc(OCc4cccc(F)c4)c(Cl)c3)c2c1.Cc1ccc(S(=O)(=O)O)cc1`
Data returned: 2

Data request: Look up Population Membrane Permeable-Phenotype (%): `Cc1cc(C)cc(-c2cnc3cc(Cl)c(-c4cccc(O)c4)cc3c2OCCCN)c1`
Data returned: 2

Could you now look at the following compound, please?
Data request: Using the record for `Cc1csc2c(N[C@@H](C)CN3CCN(S(=O)(=O)c4ccc(Cl)c(Cl)c4)CC3)ncnc12` , report its Population Membrane Permeable-Phenotype (%).
Data returned: 11

* * *

test system: Fibroblast; assay: Incucyte cell viability with human fibroblast; type: toxicity, cell-based; conditions: 12 h, 10 µM, compound concentration 10 uM, replicate number 1, timepoint 12 hours; also: filed as whole numbers so only -1 and 0 and 1 occur
readout_name: Growth Rate
Please state the value as a number alone, without comment.

Data request: Could you tell me which Growth Rate is on file for `N#Cc1c(O)nc(SCc2cccc(F)c2F)nc1C1CC1` ?
Data returned: 1

Data request: So what's the measured Growth Rate for this one? `CNc1nc(NCc2ccc(NS(C)(=O)=O)cc2Cl)cc(-c2ccccn2)n1`
Data returned: 0

Data request: Which Growth Rate reading was recorded for the molecule `CN(C)C(=O)c1ccc(-c2cc(C(=O)N[C@@H]3CCc4ccccc43)no2)cc1O` ?
Data returned: 0

Data request: So what's the measured Growth Rate for this one? CC(=O)OCC(=O)[C@@]1(O)CC[C@H]2[C@@H]3CCC4=CC(=O)CC[C@]4(C)[C@@]3(F)[C@@H](O)C[C@@]21C [FLUDROCORTISONE ACETATE]
Data returned: 1

Data request: # query: Growth Rate of entry `CS(=O)(=O)c1cccc(NC(=O)N(Cc2ccc(C(=O)Nc3nn[nH]n3)cc2)c2ccc(C3CCCCC3)cc2)c1`
Data returned: 0

Next:
Data request: Given `O=C(NCCN1CCOCC1)c1ccc2c(c1)C(=O)c1ccc(Nc3ccc(F)c(NC(=O)c4ccccc4)c3)cc1CC2` , state its recorded Growth Rate.
Data returned: 0

Data request: What value of Growth Rate has been recorded for this entry: `CCOCCn1cc(C(=O)Nc2ccc(-n3nc(-c4cccnc4)cc3C(F)(F)F)cn2)ccc1=O`
Data returned: 0

Data request: Could you tell me which Growth Rate is on file for `O=C(O)C[C@H]1CCc2c1[nH]c1ccc(OCc3ccc(C4CCCC4)c(C(F)(F)F)c3)cc21` ?
Data returned: 1

Data request: Consider the molecule shown here: `CN1C(=O)c2sccc2N(C)c2nc(Nc3ccc(S(N)(=O)=O)cc3)ncc21` What is its recorded Growth Rate?
Data returned: 0

Data request: Given the molecule `Cc1nc(C(=O)N2CCC[C@H]2Cc2nnc(-c3ccccc3)o2)c(-c2ccccc2F)s1` , what is its reported Growth Rate?
Data returned: 0

Data request: Which Growth Rate is reported for this molecule? `Cc1csc2c(N[C@@H](C)CN3CCN(S(=O)(=O)c4ccc(Cl)c(Cl)c4)CC3)ncnc12`
Data returned: 1

Data request: Any idea what Growth Rate was measured for `C[C@@]1(C(=O)Nc2ccc(F)nc2)CCCN1c1nc(Nc2cc(C3CC3)n[nH]2)c2cccn2n1` ?
Data returned: 0

Data request: Entry under review: `NC(=O)c1ccc(NC(=O)NCc2cccc(C(=O)Nc3ccc4c(c3)CNCC4)c2)cc1` . Reported Growth Rate?
Data returned: 0

Data request: Data request, read-out Growth Rate, for `CNCc1ccccc1-c1csc([C@H](C)Nc2nc(C)nc3cc(OC)c(OC)cc23)c1`
Data returned: 0

Data request: Entry CN1CCCC(n2nc(Cc3ccc(Cl)cc3)c3ccccc3c2=O)CC1.Cl (stereo unspecified) [AZELASTINE HYDROCHLORIDE] : reported Growth Rate = ?
Data returned: 1

Data request: Report Growth Rate for `CC(C)S(=O)(=O)c1ccc2nccc(Nc3ccc4scnc4c3)c2c1` please.
Data returned: 0
